Give inhibition of SARS-CoV-2 cytopathic effect for every item shown.
Tested on: Vero E6 infected with SARS-CoV-2
Procedure summary: inhibition of SARS-CoV-2 cytopathic effect; higher = more antiviral protection, active = above 15
Conditions: 10000 nM; 48 h
Give bare numbers, in %.

>  <Molecule>
CN1C(=O)C[C@@H](C(=O)N[C@@H](Cc2c[nH]cn2)C(=O)N2CCC[C@H]2C(N)=O)NC1=O [taltirelin]

>  <Recorded result>
4.65

$$$$
>  <Molecule>
CN[C@@H](C)CC1CCCCC1 [propylhexedrine]

>  <Recorded result>
-8.06

$$$$
>  <Molecule>
CC1(C)OC(=O)NC1=O [dimethadione]

>  <Recorded result>
0.15

$$$$
>  <Molecule>
CC(C)c1onc(-c2c(Cl)cccc2Cl)c1COc1ccc(/C=C/c2cccc(C(=O)O)c2)c(Cl)c1

>  <Recorded result>
0.01

$$$$
>  <Molecule>
CC[C@@]1(O)C(=O)OCc2c1cc1n(c2=O)Cc2c-1nc1cc(F)c(C)c3c1c2[C@@H](N)CC3 [exatecan-mesylate]

>  <Recorded result>
-20.5

$$$$
>  <Molecule>
CCOCCn1c(C2CCN(CCc3ccc(C(C)(C)C(=O)O)cc3)CC2)nc2ccccc21 [bilastine]

>  <Recorded result>
-0.38

$$$$
>  <Molecule>
c1ccc(C(NCc2cccnc2)(c2ccccc2)c2ccccc2)cc1

>  <Recorded result>
2.26

$$$$

Prompt: Retrieve inhibition of SARS-CoV-2 cytopathic effect measured for CCCCCCCCCCCCCCCC(=O)OC[C@H](COP(=O)([O-])OCC[N+](C)(C)C)OC(=O)CCCCCCCCCCCCCCC [colfosceril-palmitate] and print it.
Response: -9.82
